Test system: Escherichia coli SS
test: In Vitro Antibacterial Activity, agar dilution MIC
Type: cell-based
runParameters: E. coli SS; BHI agar dilution, 20-24 hours; unit assumed
Record form. Attribute: MIC values. Fill in for each entry.
Quick note: give the figure in µg/mL, leave out the unit.

Exercise: Entry under review: Cl.Cl.NCC1COC2(CCN(c3cc4c(cc3F)c(=O)c(C(=O)O)cn4-c3ccc(F)cc3F)C2)O1 (centres unmarked) . Reported MIC values?
Solution: 0.02

Exercise: Cool, now O=C(O)c1cn(C2CC2)c2cc(N3CCNCC3)c(F)cc2c1=O [Cipro, Ciprofloxacin, reference compound]
Solution: 0.005

Exercise: Cool, now NC1CN(c2c(F)cc3c(=O)c(C(=O)O)cn(C4CC4)c3c2F)CC12OCCO2 (centres unmarked)
Solution: 0.002

Exercise: Cool, now CN(C)CC1COC2(CCN(c3nc4c(cc3F)c(=O)c(C(=O)O)cn4-c3ccc(F)cc3F)C2)O1 (centres unmarked)
Solution: 0.2

Exercise: Cool, now C[C@@H]1COc2c(N3CCC4(CC3)OCCCO4)c(F)cc3c(=O)c(C(=O)O)cn1c23
Solution: 0.01

* * *

System: Streptococcus pyogenes EES61
test: In Vitro Antibacterial Activity, agar dilution MIC
Assay type: cell-based
runParameters: S. pyogenes EES61; BHI agar dilution, 20-24 hours; unit assumed
Record form. Attribute: MIC values. Fill in for each entry.
Quick note: give the figure in µg/mL, leave out the unit.

Exercise: Entry under review: C[C@@H]1COc2c(N3CCC4(CC3)OCCCO4)c(F)cc3c(=O)c(C(=O)O)cn1c23 . Reported MIC values?
Solution: 1.56

Exercise: Cool, now O=C(O)c1cn(C2CC2)c2cc(N3CCNCC3)c(F)cc2c1=O [Cipro, Ciprofloxacin, reference compound]
Solution: 0.39

Exercise: Cool, now CN(C)CC1COC2(CCN(c3nc4c(cc3F)c(=O)c(C(=O)O)cn4-c3ccc(F)cc3F)C2)O1 (centres unmarked)
Solution: 0.78

Exercise: Cool, now NC1CN(c2c(F)cc3c(=O)c(C(=O)O)cn(C4CC4)c3c2F)CC12OCCO2 (centres unmarked)
Solution: 0.2

Exercise: Cool, now Cl.Cl.NCC1COC2(CCN(c3cc4c(cc3F)c(=O)c(C(=O)O)cn4-c3ccc(F)cc3F)C2)O1 (centres unmarked)
Solution: 0.39

* * *

Test system: Pseudomonas aeruginosa BMH10
test: In Vitro Antibacterial Activity, agar dilution MIC
Format: cell-based
runParameters: P. aeruginosa BMH10; BHI agar dilution, 20-24 hours; unit assumed
quantityKind: MIC values (µg/mL)
Quick note: give the figure in µg/mL, leave out the unit.

Exercise: Entry under review: O=C(O)c1cn(C2CC2)c2cc(N3CCNCC3)c(F)cc2c1=O [Cipro, Ciprofloxacin, reference compound] . Reported MIC values?
Solution: 0.05

Exercise: Cool, now C[C@@H]1COc2c(N3CCC4(CC3)OCCCO4)c(F)cc3c(=O)c(C(=O)O)cn1c23
Solution: 12.5

Exercise: Cool, now NC1CN(c2c(F)cc3c(=O)c(C(=O)O)cn(C4CC4)c3c2F)CC12OCCO2 (centres unmarked)
Solution: 1.56

Exercise: Cool, now Cl.Cl.NCC1COC2(CCN(c3cc4c(cc3F)c(=O)c(C(=O)O)cn4-c3ccc(F)cc3F)C2)O1 (centres unmarked)
Solution: 3.1

Exercise: Cool, now CN(C)CC1COC2(CCN(c3nc4c(cc3F)c(=O)c(C(=O)O)cn4-c3ccc(F)cc3F)C2)O1 (centres unmarked)
Solution: 12.5
